# Substrate: CCOC(=O)C(=O)CCc1ccccc1
# Experimental details: purified protein
# Assay type: biochemical, Thermotoga maritima
# Reported conditions: apparent, 0.25 mM NADPH, 50 mM potassium phosphate pH 6.5, 35 °C, 30 mM DMSO

Protein: Tm1743 (Thermotoga maritima MSB8; W118E/W21L) (protein) MLYKELGRTGEEIPALGLGTLGIGGFETPDYSRDEEMVELLKTAIKMGYTHIDTAEYYGGGHTEELIGKAIKDFRREDLFIVSKVWPTHLRRDDLLRSLENTLKRLDTDYVDLYLIHEPNPEIPLEETLSAMAEGVRQGLIRYIGVSNFDRRLLEEAISKSQEPIVCDQVKYNIEDRDPERDGLLEFCQKNGVTLVAYSPLRRTLLSEKTKRTLEEIAKNHGATIYQIMLAWLLAKPNVVAIPKAGRVEHLRENLKATEIKLSEEEMKLLDSLG
kcat/Km [M⁻¹ s⁻¹]: 190
--
Protein: Tm1743 (Thermotoga maritima MSB8; W118H/W21L) (protein) MLYKELGRTGEEIPALGLGTLGIGGFETPDYSRDEEMVELLKTAIKMGYTHIDTAEYYGGGHTEELIGKAIKDFRREDLFIVSKVWPTHLRRDDLLRSLENTLKRLDTDYVDLYLIHHPNPEIPLEETLSAMAEGVRQGLIRYIGVSNFDRRLLEEAISKSQEPIVCDQVKYNIEDRDPERDGLLEFCQKNGVTLVAYSPLRRTLLSEKTKRTLEEIAKNHGATIYQIMLAWLLAKPNVVAIPKAGRVEHLRENLKATEIKLSEEEMKLLDSLG
kcat/Km [M⁻¹ s⁻¹]: 120
--
Protein: Tm1743 (Thermotoga maritima MSB8; W21S/W86E) (protein) MLYKELGRTGEEIPALGLGTSGIGGFETPDYSRDEEMVELLKTAIKMGYTHIDTAEYYGGGHTEELIGKAIKDFRREDLFIVSKVEPTHLRRDDLLRSLENTLKRLDTDYVDLYLIHWPNPEIPLEETLSAMAEGVRQGLIRYIGVSNFDRRLLEEAISKSQEPIVCDQVKYNIEDRDPERDGLLEFCQKNGVTLVAYSPLRRTLLSEKTKRTLEEIAKNHGATIYQIMLAWLLAKPNVVAIPKAGRVEHLRENLKATEIKLSEEEMKLLDSLG
kcat/Km [M⁻¹ s⁻¹]: 810
